Recorded composite Z-score values for a group of molecules are listed next.
test: small-molecule microarray binders of probe aXIP, primary screen, biochemical, NeuroSMM set, 635/667 nm fluorescence (AID 1119); conditions: higher = more signal, called active from +8 up or from −8 down;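 also: probe is the protein aXip251-270 applied at 1 µg/mL to compound-printed slides; binding of probe to printed compounds measured as 667 nm fluorescence plus signal to noise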
The answer should be written as a number, with no unit following it.

Some molecules with known composite Z-score results, for comparison:
CCOC(=O)CCN1C(=O)[C@H]2[C@H]3[C@H](O)[C@H](O)CC(=O)[C@H]3CC[C@H]2C1=O	0.466
CO[C@@H]1COC(=O)[C@H](C)NC(=O)[C@@H](C)COC(=O)CCC[C@H]1C	-0.0735
CCCCC(=C=CC[C@H](O)c1ccccc1OCCO)C[C@H](O)COCc1ccccc1	2.26
CCN1C(=O)[C@H]2[C@H]3[C@H](O)[C@H](O)CC(=NOCC=C(C)CCC=C(C)C)[C@H]3CC[C@H]2C1=O	-0.768
COCCOC(=O)N1C(=O)[C@@]2(c3cc(C#CC4(O)CCCCCC4)ccc31)[C@H](c1ccc(OCCO)cc1)N1[C@H](c3ccccc3)[C@H](c3ccccc3)OC(=O)[C@H]1[C@@H]2C(=O)NC[C@H](O)c1ccccc1	-0.317
COCCOC(=O)N1C(=O)[C@@]2(c3cc(C#CC4(O)CCCCCC4)ccc31)[C@H](C(=O)N1CCN(c3ncccn3)CC1)[C@H]1C(=O)O[C@H](c3ccccc3)[C@H](c3ccccc3)N1[C@@H]2c1ccc(OCCO)cc1	-0.108
Cc1cc2c(nc1C)CCCN2CC(C)ON=C1[C@H]2CCn3c(=O)n(-c4ccccc4)c(=O)n3[C@H]2[C@H](O)[C@@H]2O[C@H]12 (some centres undefined)	0.506
CCOC(=O)[C@H](CC(C)C)NC(=O)CCC1CC(OC(=O)NCc2cccc3ccccc23)CC2(CCCC(COC(=O)NCCc3ccccc3OC)O2)O1 (some centres undefined)	0.0898

Task: Recorded composite Z-score for "CCc1cc2c(nc1CC)CCN(CCC(C)=NOC[C@@H](O)[C@H]1O[C@@H]3OC(C)(C)O[C@@H]3[C@H]1O)C2" , please?
Result: 0.386

Task: Same again, this time with "C[C@H]1Cc2c(-c3ccccc3)nc3c(c2CO1)CN(CCOc1ccccc1)CC3"
Result: -0.2

Task: For "COc1ccc([Si](C)(C)[C@H]2[C@H](CCO)O[C@@]3(C(=O)N(Cc4cccc(NC(=O)[C@H](C)O)c4)c4ccccc43)[C@@H]2C)cc1" then?
Result: 1.49

Task: "COCCCNC(=O)[C@]1(CCC(=O)OC(C)(C)C)N=C(c2ccc(OCCCO)cc2)O[C@@H]1c1ccccc1N=[N+]=[N-]" ?
Result: 0.201

Task: Same thing, different molecule: COC(=O)C1=CCC(c2cccc(Cl)c2)O1 (centres undefined)
Result: 0.0018

Task: Now try "CO[C@H]1COC(=O)CC=C[C@H](C)[C@@H](NS(=O)(=O)c2ccc(C)cc2)COC(=O)CC=C[C@@H]1C" .
Result: -0.38

Task: Input "COc1ccc([Si](C)(C)[C@@H]2[C@@H](CC(=O)N3CCC[C@H]3CO)O[C@]3(C(=O)N(Cc4cccc(N5CCC5=O)c4)c4ccccc43)[C@H]2C)cc1"
Result: 0.188

Task: Same thing, different molecule: "CC(C)=C1C(=O)C(c2ccccc2)=C2CN3C(=O)N(CCc4ccccc4)C(=O)[C@]3(Cc3ccc(F)cc3)[C@H]21"
Result: 1.87

Task: Repeat with "CCOC(=O)C1=CC[C@H]2C(=O)N(CC)C(=O)[C@@H]12"
Result: 0.806
